The reported measurements were obtained from paper PMC7588595.

target: human AspH (His6-AspH315–758) (Homo sapiens); construct: N-Terminally His6-tagged human AspH315–758 (His6-AspH315–758) was produced in Escherichia coli BL21 (DE3) cells; made in house; host or cells: Escherichia coli BL21 (DE3), pET-28a(+) vector; assay: SPE-MS AspH inhibition assay (hFX-CP101-119 substrate hydroxylation); type: biochemical; conditions: 20 μM fixed inhibitor concentration
property: remaining activity at 20 µM

COc1c/c(=C2\C=c3ccccc3=N2)[nH]/c1=C\c1[nH]c(C)cc1C.CS(=O)(=O)O [Obatoclax, reference compound] :: ~20%

IN: # return recorded remaining activity at 20 µM for entry CCCS(=O)(=O)Nc1ccc(F)c(C(=O)c2c[nH]c3ncc(-c4ccc(Cl)cc4)cc23)c1F [Vemurafenib, reference compound]
OUT: ~20%

IN: # return recorded remaining activity at 20 µM for entry CC1(C)CCC(c2ccc(Cl)cc2)=C(CN2CCN(c3ccc(C(=O)NS(=O)(=O)c4ccc(N[C@H](CCN5CCOCC5)CSc5ccccc5)c(S(=O)(=O)C(F)(F)F)c4)cc3)CC2)C1 [Navitoclax, reference compound]
OUT: ~10%

IN: # return recorded remaining activity at 20 µM for entry CC1(C)CCC(CN2CCN(c3ccc(C(=O)NS(=O)(=O)c4ccc(NCC5CCOCC5)c([N+](=O)[O-])c4)c(Oc4cnc5[nH]ccc5c4)c3)CC2)=C(c2ccc(Cl)cc2)C1 [Venetoclax, reference compound]
OUT: ~3%

----------
biological target: human AspH (His6-AspH315–758) (Homo sapiens); construct: N-Terminally His6-tagged human AspH315–758 (His6-AspH315–758) was produced in Escherichia coli BL21 (DE3) cells; made in house; host or cells: Escherichia coli BL21 (DE3), pET-28a(+) vector; assay: SPE-MS AspH inhibition assay (hFX-CP101-119 substrate hydroxylation); type: biochemical; settings: AspH-inhibitor screening, 384-well Plate 1
property: Plate 1 (% inhibition) (%)

Reference set (2 entries):
CN1CCN(c2ccc3nc(-c4c(N)c5c(F)cccc5[nH]c4=O)[nH]c3c2)CC1 :: -15.11
CC(C)C[C@@H](C(=O)N[C@H](C(=O)OC1CCCC1)c1ccccc1)[C@H](O)C(=O)NO :: -9.77

A = Cc1ccc(C(=O)N(CCCN)[C@@H](c2oc3cc(Cl)ccc3c(=O)c2Cc2ccccc2)C(C)C)cc1
B = CNCc1ccc(-c2[nH]c3cc(F)cc4c3c2CCNC4=O)cc1
IN: // compare measured Plate 1 (% inhibition) between A and B ; output the lower one Indicate which entry you chose by stating its label.
OUT: A
(A: -12.94%, B: 17.02%)

----------
Molecular target: human AspH (His6-AspH315–758) (Homo sapiens)
Construct: N-Terminally His6-tagged human AspH315–758 (His6-AspH315–758) was produced in Escherichia coli BL21 (DE3) cells; made in house; host or cells: Escherichia coli BL21 (DE3), pET-28a(+) vector
Sequence (Q12797 315-758): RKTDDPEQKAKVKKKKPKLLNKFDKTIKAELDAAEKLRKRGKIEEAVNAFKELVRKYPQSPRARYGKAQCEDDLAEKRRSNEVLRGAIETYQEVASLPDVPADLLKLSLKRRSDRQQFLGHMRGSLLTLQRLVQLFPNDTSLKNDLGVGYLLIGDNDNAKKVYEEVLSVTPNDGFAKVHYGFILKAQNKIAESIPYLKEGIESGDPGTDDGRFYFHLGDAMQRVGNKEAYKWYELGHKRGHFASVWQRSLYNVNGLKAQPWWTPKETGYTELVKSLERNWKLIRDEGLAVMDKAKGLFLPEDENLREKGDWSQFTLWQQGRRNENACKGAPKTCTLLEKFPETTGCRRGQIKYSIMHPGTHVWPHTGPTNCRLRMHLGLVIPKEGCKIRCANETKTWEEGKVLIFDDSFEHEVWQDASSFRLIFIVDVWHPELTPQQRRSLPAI
Test: SPE-MS AspH inhibition assay (hFX-CP101-119 substrate hydroxylation)
Type: biochemical
Conditions: AspH-inhibitor screening, Plate 1-duplicate, substrate conversion
property: Plate 1-duplicate (% conversion) (%)

Cc1cc2c(F)c(Oc3ncnn4cc(OC[C@@H](C)O)c(C)c34)ccc2[nH]1 [Brivanib] :: 50.20
CCCCCCCCCCCCCCCCCCOP(=O)([O-])OC1CC[N+](C)(C)CC1 [Perifosine aq/PBS] :: 53.11
CCc1c2c(nc3ccc(OC(=O)N4CCC(N5CCCCC5)CC4)cc13)-c1cc3c(c(=O)n1C2)COC(=O)[C@]3(O)CC.Cl [Irinotecan hydrochloride] :: 51.76
COc1cc2c(cc1-c1c(C)noc1C)ncc1[nH]c(=O)n([C@H](C)c3ccccn3)c12 [I-BET151 (GSK1210151A)] :: 51.06
NCCCNCCSP(=O)(O)O [Amifostine] :: 49.19
C[C@H]1C[C@@H]2[C@H]([C@@H](O)C[C@@]3(C)[C@H]2CC[C@]3(O)C(=O)CO)[C@@]2(C)C=CC(=O)C=C12 [Methylprednisolone] :: 48.91
CNC(=O)c1ccc(N2C(=S)N(c3ccc(C#N)c(C(F)(F)F)c3)C(=O)C2(C)C)cc1F [Enzalutamide] :: 55.46
CO[C@H]1C[C@@H]2CC[C@@H](C)[C@@](O)(O2)C(=O)C(=O)N2CCCC[C@H]2C(=O)O[C@H]([C@H](C)C[C@@H]2CC[C@@H](OCCO)[C@H](OC)C2)CC(=O)[C@H](C)/C=C(\C)[C@@H](O)[C@@H](OC)C(=O)[C@H](C)C[C@H](C)/C=C/C=C/C=C/1C [Everolimus] :: 65.82

1 = CC(=O)c1c(C)c2cnc(Nc3ccc(N4CCNCC4)cn3)nc2n(C2CCCC2)c1=O [PD-0332991]
2 = COc1cc(Nc2c(C#N)cnc3cc(OCCCN4CCN(C)CC4)c(OC)cc23)c(Cl)cc1Cl [Bosutinib]
IN: Which is greater in Plate 1-duplicate (% conversion), the first item 1 or the second item 2 ? Indicate which entry you chose by stating its label.
OUT: 2
(2: 77.00%, 1: 52.60%)

----------
target: human AspH (His6-AspH315–758) (Homo sapiens); construct: N-Terminally His6-tagged human AspH315–758 (His6-AspH315–758) was produced in Escherichia coli BL21 (DE3) cells; made in house; host or cells: Escherichia coli BL21 (DE3), pET-28a(+) vector; assay: SPE-MS AspH inhibition assay (hFX-CP101-119 substrate hydroxylation); assay type: biochemical; settings: AspH-inhibitor screening, 384-well Plate 1, substrate conversion
property: Plate 1 (% conversion) (%)

Reference set (2 entries):
C[C@]12O[C@H](C[C@]1(O)CO)n1c3ccccc3c3c4c(c5c6ccccc6n2c5c31)CNC4=O :: 40.35
Cc1ccc(-n2nc(C(C)(C)C)cc2NC(=O)Nc2ccc(OCCN3CCOCC3)c3ccccc23)cc1 :: 46.14

1 = CCCCCOC(=O)Nc1nc(=O)n([C@@H]2O[C@H](C)[C@@H](O)[C@H]2O)cc1F
2 = Cc1cc(Nc2ncc(Cl)c(Nc3ccccc3S(=O)(=O)C(C)C)n2)c(OC(C)C)cc1C1CCNCC1
IN: Which is greater in Plate 1 (% conversion), the first item 1 or the second item 2 ? Indicate which entry you chose by stating its label.
OUT: 2

----------
molecular target: human AspH (His6-AspH315–758) (Homo sapiens); construct: N-Terminally His6-tagged human AspH315–758 (His6-AspH315–758) was produced in Escherichia coli BL21 (DE3) cells; made in house; host or cells: Escherichia coli BL21 (DE3), pET-28a(+) vector; test: SPE-MS AspH inhibition assay (hFX-CP101-119 substrate hydroxylation); type: biochemical; details: AspH-inhibitor screening, 384-well Plate 1
property: Plate 1 (% inhibition) (%)

CCCCC(=O)OCC(=O)[C@]1(O)Cc2c(O)c3c(c(O)c2[C@@H](O[C@H]2C[C@H](NC(=O)C(F)(F)F)[C@H](O)[C@H](C)O2)C1)C(=O)c1c(OC)cccc1C3=O :: -2.24

1 = Nc1cc(C(F)(F)F)c(-c2cc(N3CCOCC3)nc(N3CCOCC3)n2)cn1
2 = CN[C@@H](C)C(=O)N[C@H]1CN(C(=O)CC(C)C)CC[C@H]2CC[C@@H](C(=O)NC(c3ccccc3)c3ccccc3)N2C1=O
3 = Nc1ccccc1NC(=O)c1ccc(CNc2nccc(-c3cccnc3)n2)cc1
4 = O=c1[nH]cc(F)c(=O)[nH]1
5 = Cn1c(=O)c(F)c(Nc2ccc(I)cc2F)c2c(=O)n(C[C@@H](O)CO)cnc21
IN: Could you please order the items by Plate 1 (% inhibition), going from the lowest number to the highest? In your reply, arrange the labels in the requested order.
OUT: 5, 1, 2, 3, 4
